Data provenance: patent US9988371B2

measurement_target: VEGFR2 (Homo sapiens)
Sequence (P35968 834-1162 limits assumed): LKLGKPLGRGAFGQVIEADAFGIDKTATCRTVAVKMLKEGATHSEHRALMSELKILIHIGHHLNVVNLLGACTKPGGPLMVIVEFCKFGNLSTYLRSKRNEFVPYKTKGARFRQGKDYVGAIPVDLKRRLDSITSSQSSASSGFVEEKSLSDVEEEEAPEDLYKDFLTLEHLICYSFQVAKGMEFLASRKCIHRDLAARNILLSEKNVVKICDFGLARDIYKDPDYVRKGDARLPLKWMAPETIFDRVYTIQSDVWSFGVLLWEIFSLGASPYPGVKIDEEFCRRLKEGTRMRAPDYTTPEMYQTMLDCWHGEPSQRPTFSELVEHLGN
pIC50: −log10 of the molar value.
reported_property: pIC50

QUERY: pIC50 lookup needed for Cn1cc(-c2ccc3c(c2)ncn3-c2ccc(CC(=O)Nc3cc(C(C)(C)C)on3)cc2)cn1 , thanks.
RESULT: > 9.00

====

Test system: Ba/F3 cells transfected by RET/PTC3 (NCOA4-RET)
assay_text: IL-3-independent proliferation of Ba/F3 RET/PTC3 cells
Type: cell-based, murine
condition_description: Mus musculus, BaF3
reported_property: IC50 (nM)
Please reply with the bare figure in nM and do not write the unit itself.

QUERY: Record request: IC50 value, item Cn1cc(-c2ccc3c(c2)ncn3-c2ccc(CC(=O)Nc3cc(C(C)(C)C)on3)cc2)cn1
RESULT: 0.34

====

assay_text: PK study in rats
Type: in vivo
condition_description: rat, in vivo, 10 mg/kg, oral study, read-out: elimination half-life (converted)
reported_property: half-life (h)
// return numeric value only (unit: h, not printed)

QUERY: Give the measured half-life of Cn1cc(-c2ccc3c(c2)ncn3-c2ccc(CC(=O)Nc3cc(C(C)(C)C)on3)cc2)cn1 [Pz-1] .
RESULT: 4.2

====

assay_text: PK study in mice
Assay type: in vivo
condition_description: mouse, in vivo, oral, read-out: T1/2 (converted)
reported_property: half-life (h)
Dear colleague, please return just the value in h, with no unit written.

QUERY: For Cn1cc(-c2ccc3c(c2)ncn3-c2ccc(CC(=O)Nc3cc(C(C)(C)C)on3)cc2)cn1 , what is its reported half-life?
RESULT: 4.2

====

Test system: TT cells (MTC, RET/C634W)
assay_text: Growth curve proliferation assay, TT cells
Type: cell-based
condition_description: Homo sapiens, last day of growth curves
reported_property: pIC50
// pIC50 here means minus log10 of the molar concentration (mol/L)

QUERY: Any idea what its pIC50 is? The molecule is Cn1cc(-c2ccc3c(c2)ncn3-c2ccc(CC(=O)Nc3cc(C(C)(C)C)on3)cc2)cn1
RESULT: 8.73

====

assay_text: PK study in rats
Format: in vivo
condition_description: rat, in vivo, oral, 10 mg/kg
Method: For PK studies of Pz-1 in animals, a solution formulation for oral administration was created in 500 μL of polysorbate 80, 500 μL of EtOH, and 1.0 mL of pH 2 buffer. For the toxicity studies, a suspension formulation was developed in tween 20 (20%) and xanthan gum (0.125%). T112 (3-4 hrs) in rats was in line with T1/2 in mice (4.2 hrs).
reported_property: clearance (mL/min/kg)
# unit: mL/min/kg | format: bare number

QUERY: Record request: clearance value, item Cn1cc(-c2ccc3c(c2)ncn3-c2ccc(CC(=O)Nc3cc(C(C)(C)C)on3)cc2)cn1
RESULT: 9

====

measurement_target: hERG (Homo sapiens)
Construct: purchased GenScript
Sequence (Q12809 whole entry): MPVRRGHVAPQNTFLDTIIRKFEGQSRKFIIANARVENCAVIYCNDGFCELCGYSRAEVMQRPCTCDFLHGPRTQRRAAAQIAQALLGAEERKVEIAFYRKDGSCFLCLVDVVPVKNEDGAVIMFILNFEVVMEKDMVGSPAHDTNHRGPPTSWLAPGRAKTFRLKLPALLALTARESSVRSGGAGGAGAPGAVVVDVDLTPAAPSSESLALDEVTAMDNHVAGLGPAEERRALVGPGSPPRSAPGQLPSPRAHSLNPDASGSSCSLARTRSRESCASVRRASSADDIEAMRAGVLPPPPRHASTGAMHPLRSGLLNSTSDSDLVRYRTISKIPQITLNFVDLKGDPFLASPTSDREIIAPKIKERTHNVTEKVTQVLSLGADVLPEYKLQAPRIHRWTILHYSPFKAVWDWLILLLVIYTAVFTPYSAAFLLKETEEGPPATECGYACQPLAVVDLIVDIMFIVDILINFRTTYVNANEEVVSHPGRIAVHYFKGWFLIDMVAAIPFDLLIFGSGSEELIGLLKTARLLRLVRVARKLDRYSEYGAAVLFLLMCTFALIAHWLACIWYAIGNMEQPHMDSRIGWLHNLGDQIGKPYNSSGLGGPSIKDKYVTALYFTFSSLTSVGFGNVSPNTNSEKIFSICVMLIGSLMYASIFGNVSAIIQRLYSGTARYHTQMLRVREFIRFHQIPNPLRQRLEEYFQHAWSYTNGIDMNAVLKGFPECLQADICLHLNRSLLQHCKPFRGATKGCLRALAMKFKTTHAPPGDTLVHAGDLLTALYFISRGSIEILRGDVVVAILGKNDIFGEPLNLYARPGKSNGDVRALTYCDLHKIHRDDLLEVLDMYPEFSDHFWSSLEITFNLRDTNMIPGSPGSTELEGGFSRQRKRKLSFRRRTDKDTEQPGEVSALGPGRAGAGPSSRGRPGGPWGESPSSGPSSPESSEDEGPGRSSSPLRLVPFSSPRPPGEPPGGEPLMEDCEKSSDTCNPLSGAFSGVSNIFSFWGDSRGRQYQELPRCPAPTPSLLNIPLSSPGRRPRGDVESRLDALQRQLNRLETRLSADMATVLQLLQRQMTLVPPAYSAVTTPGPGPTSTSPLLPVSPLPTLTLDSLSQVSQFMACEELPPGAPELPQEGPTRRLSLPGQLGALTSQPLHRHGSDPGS
assay_text: patch clamp hERG assay
Format: cell-based
condition_description: patch clamp (GenScript)
reported_property: pIC50
pIC50 is a log-scale quantity: -log10 of the concentration expressed in molar.

QUERY: Form field: reported pIC50 of Cn1cc(-c2ccc3c(c2)ncn3-c2ccc(CC(=O)Nc3cc(C(C)(C)C)on3)cc2)cn1
RESULT: 5.00

====

measurement_target: CYP2D6 (Homo sapiens, UniProt P10635)
Sequence (P10635 whole entry): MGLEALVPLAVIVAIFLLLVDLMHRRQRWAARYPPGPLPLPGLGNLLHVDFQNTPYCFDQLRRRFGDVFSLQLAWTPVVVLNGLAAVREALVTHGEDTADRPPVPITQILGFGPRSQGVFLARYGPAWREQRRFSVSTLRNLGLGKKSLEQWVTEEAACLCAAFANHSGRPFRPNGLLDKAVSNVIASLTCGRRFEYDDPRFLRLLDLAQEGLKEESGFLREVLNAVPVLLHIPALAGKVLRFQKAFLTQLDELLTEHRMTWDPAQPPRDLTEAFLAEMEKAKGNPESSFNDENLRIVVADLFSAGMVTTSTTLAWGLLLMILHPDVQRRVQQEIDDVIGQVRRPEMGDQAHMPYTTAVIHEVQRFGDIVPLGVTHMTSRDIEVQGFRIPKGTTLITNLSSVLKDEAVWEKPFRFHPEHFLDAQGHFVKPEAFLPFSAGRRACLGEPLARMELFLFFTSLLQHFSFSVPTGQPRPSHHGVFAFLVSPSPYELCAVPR
assay_text: CYP inhibition
Assay type: in vitro ADME
condition_description: read-out: CYP 2D6 IC50
reported_property: IC50 (µM)
Form entry: value (µM) — number only.

QUERY: // map Cn1cc(-c2ccc3c(c2)ncn3-c2ccc(CC(=O)Nc3cc(C(C)(C)C)on3)cc2)cn1 to recorded IC50 (system: CYP2D6 (Homo sapiens, UniProt P10635))
RESULT: 13.8
